Target: T1, human SLITRK6 on cells (human, UniProt Q9H5Y7 27-841)
T1 construct: whole, on cells
Test: flow cytometry on CHP-212 cells
pEC50: −log10 of the molar value.
Below, each entry is listed alongside its reported pEC50.

{"Binder": "phA290 (antibody, V domains shown, From phage display, then full-length construction; Only the variable regions are tied to the name) VH: QVQLVQSGAEVKKPGASVKVSCKASGYTFTSYYMHWVRQAPGQGLEWMGIINPSGGSTSYAQKFQGRVTMTRDTSTSTVYMELSSLRSEDTAVYYCARGFTRYFDYWGQGTLVTVSA VL: EIVMTQSPGTLSLSPGERATLSCRASQSVSKYLAWYQQRPGQAPRLLIYDASNRATGIPARFSGSGSGTDFTLTVSSLEPEDFAVYYCQQRYNWPLTFGGGTTVEIK", "pEC50": 9.80}
{"Binder": "Sirtratumab-LD038 (8) (antibody, V domains shown, drug-linker LD038 on cysteines freed by TCEP reduction, DAR 8.0; positions not given, also called Sirtratumab ADC) VH: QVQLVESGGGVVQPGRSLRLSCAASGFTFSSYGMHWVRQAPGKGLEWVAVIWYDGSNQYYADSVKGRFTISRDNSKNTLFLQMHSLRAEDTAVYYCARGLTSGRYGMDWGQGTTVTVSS VL: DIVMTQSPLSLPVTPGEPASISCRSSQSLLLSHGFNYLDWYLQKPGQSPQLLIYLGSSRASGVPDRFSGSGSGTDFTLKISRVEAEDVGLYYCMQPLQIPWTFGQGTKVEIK", "pEC50": 9.31}
{"Binder": "hu1H2-03-LD038 (8) (antibody, V domains shown, drug-linker LD038 on cysteines freed by TCEP reduction, DAR 8.0; positions not given, also called hu1H2-03 ADC) VH: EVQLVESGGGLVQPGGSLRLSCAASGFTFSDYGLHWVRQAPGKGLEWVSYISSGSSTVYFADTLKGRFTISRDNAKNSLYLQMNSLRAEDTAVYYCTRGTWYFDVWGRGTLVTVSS VL: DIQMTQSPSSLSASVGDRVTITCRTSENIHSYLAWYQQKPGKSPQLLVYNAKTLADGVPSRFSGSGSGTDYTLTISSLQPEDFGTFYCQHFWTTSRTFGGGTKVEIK", "pEC50": 9.40}
